Recorded values, source patent US5574043A.

biological target: muscarinic acetylcholine receptors; assay: Inhibition of specific binding of 3H-Oxotremorine-M (OXO BINDING) in vitro, rat cortex; set-up: species or system male Wistar rats; conditions: rat cortex homogenate, 3H-Oxotremorine 1.0 nM, 30 min at 25° C., pH 7.4
Mark 1.0 for reported Inhibition in vitro OXO BINDING IC50 of 1 ng/mL or greater; mark 0.0 for anything smaller.

Is it the case that CCSc1nsnc1C1CN2CCC1CC2.O=C(O)C(=O)O (stereo not shown) [Compound 52] has Inhibition in vitro OXO BINDING IC50 reaching or exceeding 1 ng/mL?
0.0

Is it the case that CCOc1nsnc1C1CN2CCC1CC2.O=C(O)/C=C/C(=O)O (stereo not shown) [Compound 9] has Inhibition in vitro OXO BINDING IC50 reaching or exceeding 1 ng/mL?
0.0

Is it the case that O=C(O)C(=O)O.OC1(c2nsnc2Cl)CN2CCC1CC2 (stereo not shown) [Compound 2] has Inhibition in vitro OXO BINDING IC50 reaching or exceeding 1 ng/mL?
1.0

Is it the case that c1ccc(CCCSc2nsnc2[C@H]2CN3CCC[C@H]2C3)cc1 (relative stereo) [Compound 83] has Inhibition in vitro OXO BINDING IC50 reaching or exceeding 1 ng/mL?
0.0

Is it the case that O=C(O)/C=C/C(=O)O.c1nsnc1C1CN2CCC1CC2 (stereo not shown) [Compound 132] has Inhibition in vitro OXO BINDING IC50 reaching or exceeding 1 ng/mL?
0.0

Is it the case that CCSc1nsnc1[C@H]1CN2CCC[C@H]1C2 (relative stereo) [Compound 32] has Inhibition in vitro OXO BINDING IC50 reaching or exceeding 1 ng/mL?
0.0

Is it the case that C=CCCCCOc1nsnc1C1CN2CCC1CC2.O=C(O)/C=C/C(=O)O (stereo not shown) [Compound 48] has Inhibition in vitro OXO BINDING IC50 reaching or exceeding 1 ng/mL?
0.0

Is it the case that CCCCSc1nsnc1[C@@H]1CN2CC[C@H]1C2 (relative stereo) [Compound 36] has Inhibition in vitro OXO BINDING IC50 reaching or exceeding 1 ng/mL?
0.0

Is it the case that CCCCOc1nsnc1[C@@H]1CN2CCC[C@@H]1C2 (relative stereo) [Compound 120] has Inhibition in vitro OXO BINDING IC50 reaching or exceeding 1 ng/mL?
0.0

Is it the case that N#CCSc1nsnc1C1CN2CCC1CC2.O=C(O)C(=O)O (stereo not shown) [Compound 103] has Inhibition in vitro OXO BINDING IC50 reaching or exceeding 1 ng/mL?
0.0

Is it the case that CCCCOc1nsnc1C1CN2CCC1CC2.O=C(O)C(=O)O (stereo not shown) [Compound 46] has Inhibition in vitro OXO BINDING IC50 reaching or exceeding 1 ng/mL?
0.0

Is it the case that CSc1nsnc1[C@H]1CN2CCC[C@H]1C2 (relative stereo) [Compound 74] has Inhibition in vitro OXO BINDING IC50 reaching or exceeding 1 ng/mL?
0.0

Is it the case that CCCCCCOc1nsnc1C1(OCCCCCC)CN2CCC1CC2.O=C(O)C(=O)O (stereo not shown) [Compound 6] has Inhibition in vitro OXO BINDING IC50 reaching or exceeding 1 ng/mL?
1.0

Is it the case that CCCCCCSc1nsnc1[C@@H]1CN2CC[C@H]1C2 (relative stereo) [Compound 34] has Inhibition in vitro OXO BINDING IC50 reaching or exceeding 1 ng/mL?
1.0

Is it the case that Clc1nsnc1C1(Cl)CN2CCC1CC2.O=C(O)C(=O)O (stereo not shown) [Compound 1] has Inhibition in vitro OXO BINDING IC50 reaching or exceeding 1 ng/mL?
1.0

Is it the case that CC(C)CCSc1nsnc1[C@@H]1CN2CCC[C@H]1C2 (relative stereo) [Compound 86] has Inhibition in vitro OXO BINDING IC50 reaching or exceeding 1 ng/mL?
1.0

Is it the case that CSc1nsnc1C1CN2CCC1CC2.O=C(O)C(=O)O (stereo not shown) [Compound 131] has Inhibition in vitro OXO BINDING IC50 reaching or exceeding 1 ng/mL?
0.0

Is it the case that CCCCCCSc1nsnc1[C@H]1CN2CCC[C@@H]1C2 (relative stereo) [Compound 17] has Inhibition in vitro OXO BINDING IC50 reaching or exceeding 1 ng/mL?
1.0

Is it the case that CCCSc1nsnc1C1CN2CCC1CC2.O=C(O)C(=O)O (stereo not shown) [Compound 53] has Inhibition in vitro OXO BINDING IC50 reaching or exceeding 1 ng/mL?
0.0

Is it the case that N#CCCCSc1nsnc1[C@H]1CN2CCC[C@@H]1C2 (relative stereo) [Compound 91] has Inhibition in vitro OXO BINDING IC50 reaching or exceeding 1 ng/mL?
1.0

Is it the case that CSc1nsnc1[C@@H]1CN2CCC[C@H]1C2 (relative stereo) [Compound 85] has Inhibition in vitro OXO BINDING IC50 reaching or exceeding 1 ng/mL?
1.0
